All values here come from patent EP4778941A1.

biological target: T1, His-tagged human MET antigen (human, UniProt P08581 25-932); assay: SPR, Biacore 8K; antibody captured, His-tagged human MET antigen 6.25-400 nM as analyte; 1:1 Langmuir
T1 construct: Soluble antigen used as analyte in SPR; not shown: His tag
T1 sequence (P08581 25-932 limits assumed): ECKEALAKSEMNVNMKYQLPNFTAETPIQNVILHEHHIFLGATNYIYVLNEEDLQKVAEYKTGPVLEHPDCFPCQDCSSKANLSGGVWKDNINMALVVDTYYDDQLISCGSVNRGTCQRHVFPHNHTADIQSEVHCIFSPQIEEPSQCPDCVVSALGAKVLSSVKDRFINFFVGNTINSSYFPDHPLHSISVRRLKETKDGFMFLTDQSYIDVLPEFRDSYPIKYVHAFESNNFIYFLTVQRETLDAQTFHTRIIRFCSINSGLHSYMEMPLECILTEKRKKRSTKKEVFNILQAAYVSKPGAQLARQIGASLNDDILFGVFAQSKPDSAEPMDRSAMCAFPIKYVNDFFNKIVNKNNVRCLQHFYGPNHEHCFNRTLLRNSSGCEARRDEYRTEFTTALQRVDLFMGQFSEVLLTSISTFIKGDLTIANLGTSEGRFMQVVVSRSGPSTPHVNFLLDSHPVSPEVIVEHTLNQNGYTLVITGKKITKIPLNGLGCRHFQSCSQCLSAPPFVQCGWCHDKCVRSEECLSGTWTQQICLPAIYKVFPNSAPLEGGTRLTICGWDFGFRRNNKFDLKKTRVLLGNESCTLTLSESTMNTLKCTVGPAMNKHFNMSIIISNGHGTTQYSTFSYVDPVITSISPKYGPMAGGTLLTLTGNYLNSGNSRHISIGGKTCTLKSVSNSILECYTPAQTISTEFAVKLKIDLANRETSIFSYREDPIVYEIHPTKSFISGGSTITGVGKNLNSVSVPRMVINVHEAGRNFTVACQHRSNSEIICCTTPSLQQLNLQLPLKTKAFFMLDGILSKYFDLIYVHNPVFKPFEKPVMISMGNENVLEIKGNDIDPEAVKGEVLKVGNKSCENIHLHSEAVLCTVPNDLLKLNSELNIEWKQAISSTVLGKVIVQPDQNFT
In this section we review reported kon values for a set of binders.
metric: kon (M⁻¹ s⁻¹)

INSERT INTO measurements (binder, measured_value) VALUES
  ('Anti-MET antibody A13 (antibody, human IgG1, kappa, V domains shown) VH: QVQLVQSGAEVKKPGASVKVSCEASGYTFTSYGFSWVRQAPGQGLEWMGWISASNGNTYYAQKLQGRVTMTTDTSTSSAYMELRSLRSDDTAVYYCARVYADYADYWGQGTLVTVSS VL: DIQMTQSPSSVSASVGDRVTITCRASQGINTWLAWYQQKPGKAPKLLIYAASSLKSGVPSRFSGSGSGADFTLTISSLQPEDFATYYCQQANSFPLTFGGGTKVEIKR', 93800),
  ('Antibody A13 N30T (antibody, human IgG1, kappa, V domains shown, Differs from antibody A13 only by N to T at position 30 of VL) VH: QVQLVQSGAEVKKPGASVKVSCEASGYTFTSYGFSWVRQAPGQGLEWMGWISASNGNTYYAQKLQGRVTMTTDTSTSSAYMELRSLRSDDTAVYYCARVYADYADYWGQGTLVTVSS VL: DIQMTQSPSSVSASVGDRVTITCRASQGITTWLAWYQQKPGKAPKLLIYAASSLKSGVPSRFSGSGSGADFTLTISSLQPEDFATYYCQQANSFPLTFGGGTKVEIKR', 106000),
  ('Antibody A13 N30S (antibody, human IgG1, kappa, V domains shown, Differs from antibody A13 only by N to S at position 30 of VL) VH: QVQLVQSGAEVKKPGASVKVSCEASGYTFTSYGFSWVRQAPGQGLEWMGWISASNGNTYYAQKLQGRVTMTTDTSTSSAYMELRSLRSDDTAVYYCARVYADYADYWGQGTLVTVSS VL: DIQMTQSPSSVSASVGDRVTITCRASQGISTWLAWYQQKPGKAPKLLIYAASSLKSGVPSRFSGSGSGADFTLTISSLQPEDFATYYCQQANSFPLTFGGGTKVEIKR', 101000),
  ('Antibody A13 N30Q (antibody, human IgG1, kappa, V domains shown, Differs from antibody A13 only by N to Q at position 30 of VL) VH: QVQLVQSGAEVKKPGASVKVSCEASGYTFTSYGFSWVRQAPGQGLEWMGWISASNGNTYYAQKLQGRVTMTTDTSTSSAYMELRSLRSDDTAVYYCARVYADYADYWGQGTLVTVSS VL: DIQMTQSPSSVSASVGDRVTITCRASQGIQTWLAWYQQKPGKAPKLLIYAASSLKSGVPSRFSGSGSGADFTLTISSLQPEDFATYYCQQANSFPLTFGGGTKVEIKR', 83000);
